meta.source: patent US20260193376A1

# Test target: randomly biotinylated human FIXa (human, UniProt P00740 47-191; P00740 227-461, randomly biotinylated (NHS-d-biotin))
# Sequence (P00740 47-191, chain 1 of 2): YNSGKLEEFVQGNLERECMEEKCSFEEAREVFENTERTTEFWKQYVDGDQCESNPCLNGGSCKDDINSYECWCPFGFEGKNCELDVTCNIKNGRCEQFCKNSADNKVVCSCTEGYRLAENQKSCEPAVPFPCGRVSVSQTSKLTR
# Sequence (P00740 227-461, chain 2 of 2): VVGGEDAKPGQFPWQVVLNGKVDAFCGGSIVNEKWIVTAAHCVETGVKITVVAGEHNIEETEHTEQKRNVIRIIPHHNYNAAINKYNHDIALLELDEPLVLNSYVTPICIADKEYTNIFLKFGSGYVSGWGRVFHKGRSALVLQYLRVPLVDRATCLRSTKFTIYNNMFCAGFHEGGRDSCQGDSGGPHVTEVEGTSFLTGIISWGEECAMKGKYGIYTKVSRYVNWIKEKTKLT
# Assay notes: BLI (Octet) in-tandem binning on biotinylated FIXa, 330 nM each; competitor (1st antibody): hIgG4 (control)
The label is fulfilled for interferometry response value below 0.6 and not fulfilled for interferometry response value equal to or exceeding 0.6.

Would you please look over these solved cases?
mAb01-9978 (antibody, V domains shown, Bivalent IgG) VH: EVQLVESGGGLVQPGRSLRLSCAASGFTFHDYAMHWVRQVPGKGLEWVSGISWKGDIGGYVDSVKGRFTISRDNEKNSLYLQMNSLRAEDTALYYCVKSYGSGSFYNAFDSWGQGTLVTVSS VL: DIQMTQSPSTLSASVGDRVTITCRASQSISSWLAWYQQKPGKAPKLLIYKASRLERGTPSRFSGSGSGTEFSLTISSLQPDDFATYYCLEYSSYIRTFGQGTKVEIK : fulfilled
224F3 (mAb01-1582) (antibody, V domains shown) VH: QVQMQQSGAELVKPGASVKLSCKASGYTFTSQDINWVRQRPEQGLEWIGWIFPGDGSTKYNEKLKGKATLTTDKSSSTAFMQLSRLTSEDSAVYFCARSAYYRYDGSYYYAMDYWGQGTSVTVSS VL: QIVLTQSPAIMSASLGEEITLTCSASSSVSYMLWYQQKSGTSPKLLIYTTSNLASGVPSRFSGTGSGTFYSLTISSVEAEDAADYYCHQWSSYPRTFGGGTKLEIKR : not fulfilled
mAb01-9994 (antibody, V domains shown, Bivalent IgG) VH: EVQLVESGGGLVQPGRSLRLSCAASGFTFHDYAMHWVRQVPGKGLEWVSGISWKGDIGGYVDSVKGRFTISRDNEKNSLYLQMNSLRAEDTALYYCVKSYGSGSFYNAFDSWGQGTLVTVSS VL: DIQMTQSPSTLSASVGDRVTITCRASQSISSWLAWYQQKPGKAPKFLIYKASRLDRGTPSRFSGSGSGTEFSLTISSLQPDDFATYYCLEYSSYIRTFGQGTKVEIK : not fulfilled

Request: API: query returns whether the binder falls strictly under 0.6 in interferometry response value. Query: mAb01-9985 (antibody, V domains shown, Bivalent IgG) VH: EVQLVESGGGLVQPGRSLRLSCAASGFTFHDYAMHWVRQVPGKGLEWVSGISWRGDIGGYVKSVKGRFTISRDNAKNSLYLQMNSLRAEDTALYYCVKSYGSGSFYNAFDSWGQGTLVTVSS VL: DIQMTQSPSTLSASVGDRVTITCRASQSISSWLAWYQQKPGKAPKFLIYKASKLERGTPSRFSGSGSGTEFSLTISSLQPDDFATYYCLEYSSYIRTFGQGTKVEIK
Response: not fulfilled
